# maps each entry to its intrinsic clearance, human liver microsomes

Recorded intrinsic clearance, human liver microsomes, per entry:
{"columns": ["SMILES_NOTATION", "VALUE_REPORTED"],
 "data": [
  ["Cc1cccc(-n2cnnc2CCCN2CCOCC2)c1", "≤ 4.74 mL/min/kg"],
  ["NCCn1cc(NC(=O)c2ccccc2)cn1", "≤ 4.74 mL/min/kg"]
]}

Please examine the following record next.
The recorded intrinsic clearance, human liver microsomes for COc1ccc(CCCNc2nnc(C)o2)cc1 is ≤ 4.74 mL/min/kg

###

# maps each entry to its intrinsic clearance, human liver microsomes
Value expressed in mL/min/kg; do not type the unit.

Recorded intrinsic clearance, human liver microsomes, per entry:
{"columns": ["SMILES_NOTATION", "ENDPOINT_UNIT", "VALUE_REPORTED"],
 "data": [
  ["O=C(C1CC1)N1CC[C@@H](Cc2n[nH]c(=O)n2-c2ccc(-c3ccc4occc4c3)cc2)C1", "mL/min/kg", 20.4],
  ["Cc1cccc2cc(C(=O)NCCCn3nnc4ccccc43)n(C)c12", "mL/min/kg", 325],
  ["CCCC(=O)Nc1ccc(C(=O)N(C)C)cc1", "mL/min/kg", 22.2]
]}

Please examine the following record next.
The recorded intrinsic clearance, human liver microsomes for COc1ccc(Nc2nc(Cl)cc(Cl)n2)cc1 is 188

###

# maps each entry to its log10 aqueous solubility
# TEST_CONDITIONS: pH 6.8
Scale type: logarithmic (base 10). Underlying aqueous solubility unit: µg/mL.

{"columns": ["COMPOUND", "QUANTITY", "VALUE_REPORTED"],
 "data": [
  ["COc1ccc(Nc2ncnc3sccc23)c(OC)c1", "log10 aqueous solubility", 1.60],
  ["c1ccc(CCn2cnc3c2CCN(c2ncccn2)C3)cc1", "log10 aqueous solubility", 1.61]
]}

The recorded log10 aqueous solubility for Fc1ccccc1-c1c[nH]nc1C1CCCN1Cc1ccc2ncccc2c1 (stereo not drawn) is 1.47

The recorded log10 aqueous solubility for Cc1nc(N(C)C)cc(C2(C)CCNCC2)n1 is 1.65

The recorded log10 aqueous solubility for NC(=O)c1ccc(Oc2ccc(C(=O)N3CCCCCC3)cc2)cc1 is 1.78

The recorded log10 aqueous solubility for Cc1sc2ncnc(OCC(=O)NC3CCCCC3)c2c1C is 1.24

The recorded log10 aqueous solubility for COCCNc1cc(NC(=O)N2CCCc3cc(CN4CCN(C)CC4=O)c(C=O)nc32)ncc1C#N is 1.30

The recorded log10 aqueous solubility for COc1ccc2c(c1)CN(c1nc(C)cc(C)n1)CC2 is 1.00

###

# maps each entry to its intrinsic clearance, human liver microsomes

Recorded intrinsic clearance, human liver microsomes, per entry:
{"columns": ["SMILES_NOTATION", "VALUE_REPORTED"],
 "data": [
  ["Cc1nc(O)cc(C2CN(C3CCCCC3)C2)n1", "≤ 4.74 mL/min/kg"],
  ["CCCN(CCC1=CCCCC1)C(=O)Cc1n[nH]c(=O)[nH]1", "≤ 4.74 mL/min/kg"]
]}

Please examine the following record next.
The recorded intrinsic clearance, human liver microsomes for Cc1cc(C)c2ccc(C(=O)N3CCN(c4nc[nH]n4)CC3)cc2n1 is ≤ 4.74 mL/min/kg

###

# true (1) = MDR1-MDCK efflux ratio below 0.8 (exclusive); false (0) = MDR1-MDCK efflux ratio at/above 0.8

Please review the entries below; each comes with its answer.
{"columns": ["MOLECULE", "GROUP_LABEL"],
 "data": [
  ["CCCNC(=O)C1(NCc2csnn2)CCCCC1", "false (0)"],
  ["COc1cccc(-c2nnn(Cc3cc(F)cc4cccnc34)n2)c1", "true (1)"],
  ["CNCc1cc(N(C)C)nc(C2CCCN2C(=O)CCc2c[nH]c3ccccc23)n1 (configuration not stated)", "false (0)"],
  ["CCS(=O)(=O)N1CCC(C(=O)N(C)C2CCCCCCC2)CC1", "false (0)"],
  ["COc1ccc(Nc2c(C#N)cnc3cc(OC)c(OC)cc23)cc1Cl", "false (0)"],
  ["COCc1nn(CCCN2CCCCC2)c(=O)o1", "true (1)"],
  ["OC1CCN(c2nccc(-c3cccs3)n2)CC1", "true (1)"],
  ["CC(C)CN(Cc1cnn(C)c1)C(=O)c1cccc(-c2cnccn2)c1", "false (0)"],
  ["Cc1cccc(C)c1OCC(=O)N(C)C1(C#N)CCC1", "true (1)"],
  ["CN(C)C(=O)C(C)(C)NC(=O)OC(C)(C)C", "false (0)"]
]}

Identify whether the molecule CCNC(=O)c1cc(C2CC2)nc2c1c(C)nn2-c1ccccn1 records MDR1-MDCK efflux ratio below 0.8. false (0)

Identify whether the molecule CC(C)CN(c1ncnc2c1cnn2C)C1CC1 records MDR1-MDCK efflux ratio below 0.8. true (1)

Identify whether the molecule O/N=C1/CCCc2c1cnc1ncnn21 records MDR1-MDCK efflux ratio below 0.8. false (0)

Identify whether the molecule Cc1cc(C(=O)N2CCOC(C)(C)C2)cc(C)c1OCc1cccnc1 records MDR1-MDCK efflux ratio below 0.8. false (0)

Identify whether the molecule Cn1c(CNc2ccc(C(=N)N)cc2)nc2cc(C(=O)N(CCC(=O)O)c3ccccn3)ccc21 records MDR1-MDCK efflux ratio below 0.8. true (1)

Identify whether the molecule O=C(c1cccc(Nc2ncccn2)c1)N1CCOCC(Cc2cccc3ccncc23)C1 (configuration not stated) records MDR1-MDCK efflux ratio below 0.8. false (0)

Identify whether the molecule CC(C)COc1cc(F)cc(-c2cncc(C(=O)N3CCCC3)n2)c1 records MDR1-MDCK efflux ratio below 0.8. true (1)

Identify whether the molecule Cc1ccc(NC(=O)CN2CCCN(c3ccc(C(F)(F)F)cn3)CC2)c(F)c1 records MDR1-MDCK efflux ratio below 0.8. false (0)

Identify whether the molecule CC1CN(C(=O)c2cccnc2N2CCOCC2)CC(c2ccccc2)O1 (configuration not stated) records MDR1-MDCK efflux ratio below 0.8. false (0)

Identify whether the molecule Cc1ccc2occ(CN3C[C@H]4CCCN4C[C@H]3C)c(=O)c2c1 records MDR1-MDCK efflux ratio below 0.8. false (0)

Identify whether the molecule C=CC(=O)Nc1cccc(Oc2nc(Nc3ccc(N4CCN(C)CC4)c(F)c3)nc3[nH]ccc23)c1 records MDR1-MDCK efflux ratio below 0.8. false (0)

Identify whether the molecule Cc1ccc(C)c(S(=O)(=O)N2CCCN(CCn3cccn3)CC2)c1 records MDR1-MDCK efflux ratio below 0.8. false (0)

Identify whether the molecule COc1ccccc1CC(=O)NC1CCN(C)CC1 records MDR1-MDCK efflux ratio below 0.8. false (0)

Identify whether the molecule CC#CC(=O)N1CC[C@@H](n2c(=O)n(-c3ccc(Oc4ccccc4)cc3)c3c(N)ncnc32)C1 records MDR1-MDCK efflux ratio below 0.8. false (0)

Identify whether the molecule CCOc1ccnc(NCCCc2nc3cc(F)ccc3[nH]2)n1 records MDR1-MDCK efflux ratio below 0.8. false (0)

###

# maps each entry to its fraction unbound, human plasma

{"columns": ["MOLECULE", "VALUE_REPORTED"],
 "data": [
  ["CNC(=O)C1(Cc2ccc(-c3cccnc3)cc2)CCN(Cc2ccccc2Cl)C1 (centres undefined)", 0.0244],
  ["CCN(C/C=C\\c1ccc(C2CCCCC2)c(Cl)c1)C1CCCCC1", 0.0014],
  ["COCC(=O)N1CCC(Cc2ccccc2-c2cccc(F)c2)(C(=O)NC(C)C)CC1", 0.0395]
]}

The recorded fraction unbound, human plasma for c1sc(NCC2CCCO2)nc1C12CC3CC(CC(C3)C1)C2 (centres undefined) is 0.0008

The recorded fraction unbound, human plasma for CCCc1nc2nc(C)c(NS(=O)(=O)c3ccc(C4CCCCC4)cc3)c(O)n2n1 is 0.00604

The recorded fraction unbound, human plasma for Cc1c[nH]c2nccc(Oc3c(F)cc(Nc4cc(Cl)nc(N)n4)cc3F)c12 is 0.0006

The recorded fraction unbound, human plasma for O=C(Nc1cccc2c(=O)cc(-c3nnn[nH]3)oc12)c1ccc(OCCCCc2ccccc2)cc1 is 0.0383

The recorded fraction unbound, human plasma for C[C@@H]1CCN(C(=O)CC#N)C[C@@H]1N(C)c1ncnc2[nH]ccc12 is 0.981

The recorded fraction unbound, human plasma for CCCNC(=O)NS(=O)(=O)c1ccc(Cl)cc1 is 0.0933

The recorded fraction unbound, human plasma for Nc1ncnc2c1c(-c1ccc(Oc3ccccc3)cc1)nn2[C@@H]1CCCNC1 is 0.0905

The recorded fraction unbound, human plasma for N#Cc1cc(F)c(NS(=O)(=O)c2c[nH]c3cc(Cl)ccc23)cc1F is 0.0094

###

QUANTITY: intrinsic clearance, rat liver microsomes (mL/min/kg)
Value expressed in mL/min/kg; do not type the unit.

{"columns": ["SMILES_NOTATION", "ENDPOINT_UNIT", "VALUE_REPORTED"],
 "data": [
  ["COc1ccccc1/C=C/CN1C[C@H]2CCCN2C[C@@H]1C", "mL/min/kg", 1450],
  ["Cc1nc2ccccc2n1CCNc1ncccn1", "mL/min/kg", 299]
]}

Please examine the following record next.
The recorded intrinsic clearance, rat liver microsomes for O=C(Nc1ccccc1)c1scnc1-c1ccccc1 is 1040
